For each record, write down the corresponding Plant response rating, Pigweed.
System: pigweed (Amaranthus retroflexus)
Test: Test A postemergence, pigweed
Format: in vivo
Settings: 500 g ai/ha, postemergence; 0 to 100 scale, 0 is no effect, 100 is complete control; approximately 10 days
In your answer, state the number alone without any accompanying words.

Annotate the compound CC(C)CCCOc1c(Br)cccc1Oc1ncc(Cl)cn1 [Compound 11] with its measured Plant response rating, Pigweed. 100

Annotate the compound FC(F)COc1c(Br)cccc1Oc1ncc(Cl)cn1 [Compound 17] with its measured Plant response rating, Pigweed. 100

Annotate the compound CC(C)CCOc1c(Br)cccc1Oc1ncc(Cl)cn1 [Compound 12] with its measured Plant response rating, Pigweed. 100

Annotate the compound Fc1cccc(Oc2ncc(Cl)cn2)c1OCCC(F)(F)F [Compound 29] with its measured Plant response rating, Pigweed. 100

Annotate the compound FCCCOc1c(F)cccc1Oc1ncc(Cl)cn1 [Compound 26] with its measured Plant response rating, Pigweed. 90

Annotate the compound Fc1cccc(Oc2ncc(Cl)cn2)c1OCCCC(F)(F)F [Compound 27] with its measured Plant response rating, Pigweed. 60

Annotate the compound N#Cc1cccc(Oc2ncc(Cl)cn2)c1OCc1ccc(C(F)(F)F)cc1 [Compound 20] with its measured Plant response rating, Pigweed. 90

Annotate the compound Fc1cccc(Oc2ncc(Cl)cn2)c1OC/C=C/C(F)(F)F [Compound 25] with its measured Plant response rating, Pigweed. 70

Annotate the compound Fc1cccc(Oc2ncc(Cl)cn2)c1OC/C=C/Cl [Compound 9] with its measured Plant response rating, Pigweed. 100

Annotate the compound CC(COc1c(C#N)cccc1Oc1ncc(Cl)cn1)CC(F)(F)F (stereo not shown) [Compound 34] with its measured Plant response rating, Pigweed. 100
